Test system: Staphylococcus aureus
procedureSummary: MIC against clinical isolates
Assay type: cell-based
details: Table 5-1, clinical isolate; unit assumed
quantityKind: MIC Staphylococcus aureus F-1 (µg/mL)

compound="CCCCCCN1CCN(C(=O)N[C@@H](C(=O)N[C@@H]2C(=O)N3[C@@H]2SC(C)(C)[C@@H]3C(=O)O)c2ccccc2)C(=O)C1 [Compound 13]" quantitykind="MIC Staphylococcus aureus F-1" endpointresult=12.5
compound="CC1(C)S[C@@H]2[C@H](NC(=O)C(C(=O)O)c3ccccc3)C(=O)N2[C@H]1C(=O)O (stereo partly drawn) [Sodium Carbenicillin, reference compound]" quantitykind="MIC Staphylococcus aureus F-1" endpointresult=6.25
compound="CC1(C)S[C@@H]2[C@H](NC(=O)C(c3ccccc3)S(=O)(=O)O)C(=O)N2[C@H]1C(=O)O (stereo partly drawn) [Sodium Sulbenicillin, reference compound]" quantitykind="MIC Staphylococcus aureus F-1" endpointresult=6.25
compound="CC(=O)N1CCN(C(=O)N[C@@H](C(=O)N[C@@H]2C(=O)N3[C@@H]2SC(C)(C)[C@@H]3C(=O)O)c2ccccc2)C(=O)C1 [Example 1]" quantitykind="MIC Staphylococcus aureus F-1" endpointresult=12.5
compound="CCCCCCN1CCN(C(=O)NC(C(=O)NC2C(=O)N3C2SC(C)(C)C3C(=O)O)c2ccccc2)C(=O)C1=O (single isomer, unassigned) [Compound 46]" quantitykind="MIC Staphylococcus aureus F-1" endpointresult=6.25
compound="CN1CCN(C(=O)NC(C(=O)NC2C(=O)N3C2SC(C)(C)C3C(=O)O)c2ccccc2)C(=O)C1=O (single isomer, unassigned) [Compound 37]" quantitykind="MIC Staphylococcus aureus F-1" endpointresult=12.5
compound="CCCCCCCCN1CCN(C(=O)N[C@@H](C(=O)N[C@@H]2C(=O)N3[C@@H]2SC(C)(C)[C@@H]3C(=O)O)c2ccccc2)C(=O)C1 [Compound 16]" quantitykind="MIC Staphylococcus aureus F-1" endpointresult=6.25
compound="CC(C)N1CCN(C(=O)NC(C(=O)NC2C(=O)N3C2SC(C)(C)C3C(=O)O)c2ccccc2)C(=O)C1=O (single isomer, unassigned) [Compound 40]" quantitykind="MIC Staphylococcus aureus F-1" endpointresult=6.25
compound="CCCCCCCCN1CCN(C(=O)NC(C(=O)NC2C(=O)N3C2SC(C)(C)C3C(=O)O)c2ccccc2)C(=O)C1=O (single isomer, unassigned) [Compound No. 47]" quantitykind="MIC Staphylococcus aureus F-1" endpointresult=6.25
